Give TGI for every item shown.
# System: NCI-H522 lung
# assay_notes: NCI tumour cell line growth inhibition, 48 h

// query # input compound: "CO[C@@H]1O[C@H](C(=O)c2ccccc2)[C@H]2OC(C)(C)O[C@@H]12" ; wanted: its TGI
// result > 100 µM

// query Also need "Cn1c2ccccc2c(=O)c2c(O)cc3c(c21)C=CC1(CCCCC1)O3" , thanks.
// result > 10 µM

// query Also need "Cc1c(C(=O)O)oc2ccc([N+](=O)[O-])cc12" , thanks.
// result > 100 µM

// query Also need "O=c1[nH]nc(Cc2ccccc2)n1/N=C/c1ccncc1" , thanks.
// result > 100 µM

// query Also need "CC(C)(C)C(=O)[CH-]C(=O)C(C)(C)C.CC(C)(C)C(=O)[CH-]C(=O)C(C)(C)C.CN(C)c1ccc([O-])cc1.CN(C)c1ccc([O-])cc1.[Ti+4]" , thanks.
// result > 100 µM

// query Also need "O=S(=O)(NCCCNc1nccc(-c2c(-c3ccc(F)cc3)nc3sccn23)n1)c1ccc2ccccc2c1" , thanks.
// result > 100 µM

// query Also need "Nc1ccc(/C=C/C(=O)NCc2cc3cc(-c4ccc(C(=O)N5CCC(F)(F)CC5)cc4)cc(-c4ccc(F)cc4)c3o2)cn1" , thanks.
// result > 100 µM

###

# Test system: PC-3 prostate
# assay_notes: NCI tumour cell line growth inhibition, 48 h
value_type: TGI

// query # input compound: "CCCCn1c(-c2ccc(C(=O)O/N=C(\N)c3ccc4c(c3)OCO4)cc2)nc(-c2ccccc2)c1-c1ccccc1" ; wanted: its TGI
// result > 100 µM

// query Also need "S=c1cc(-c2ccc3c(c2)OCO3)s[nH]1" , thanks.
// result > 100 µM

// query Also need "CN(C)C(=O)O[C@H]1CN[C@H](C#Cc2cc3ncnc(Nc4ccc(OCc5cccc(F)c5)c(Cl)c4)c3s2)C1" , thanks.
// result > 25 µM

// query Also need "Oc1ccccc1-c1nn(CNc2ccccc2Cl)c(=S)o1" , thanks.
// result > 100 µM

###

# Tested on: NCI/ADR-RES ovarian
# assay_notes: NCI tumour cell line growth inhibition, 48 h
value_type: TGI

// query # input compound: "O=C(Nc1ccc(Cl)c(Cl)c1)NS(=O)(=O)c1cnccc1Oc1ccc(F)cc1" ; wanted: its TGI
// result > 100 µM

// query Also need "CC(C)(C)OC(=O)NCCCCCCCn1c2c(c3ccccc3c1=O)C(=O)c1ccccc1-2" , thanks.
// result > 100 µM

// query Also need "COCCOCCOC1=CC(=O)c2c(O)ccc(O)c2C1=O" , thanks.
// result 4.85 µM

###

# Test system: SK-MEL-2 melanoma
# assay_notes: NCI tumour cell line growth inhibition, 48 h
value_type: TGI

// query # input molecule: "O=c1c(F)cn(Cc2ccccc2CCl)c(=O)n1Cc1ccccc1CCl" ; wanted: its TGI
// result 3.05 µM

// query Also need COc1cc2c(c(O)c1OC)C(=O)C(Cc1ccc(O)cc1)CO2 (stereo not drawn) , thanks.
// result > 100 µM

// query Also need "N#Cc1nc(C2CCC2)oc1N" , thanks.
// result > 100 µM

// query Also need "Cn1cc(C2=C(c3cn(C4CCN(Cc5ccccn5)CC4)c4ccccc34)C(=O)NC2=O)c2ccccc21" , thanks.
// result 47.5 µM

// query Also need COc1cc2c(cc1OC)C(C(=O)c1cccc(OC)c1OC)C(=O)N(C)CC2 (stereo not drawn) , thanks.
// result > 100 µM

// query Also need "CC(=O)c1ccc(O)c(CN(C2CCCCC2)C2CCCCC2)c1O" , thanks.
// result > 100 µM

// query Also need COC(=O)C(/C(=N\O)C(=O)Nc1cccc(Cl)c1C)c1cnc2ccccc2n1 (stereo not drawn) , thanks.
// result > 100 µM

// query Also need "CCON1CC(C(=O)OC)=C(O)C1=O" , thanks.
// result > 100 µM

// query Also need "C=C1c2nc3ccccc3n2C=C(c2ccc(Cl)cc2)N1c1ccc(OC)cc1" , thanks.
// result 66.5 µM

// query Also need CCOC(=O)C(NC(=O)c1nc[nH]c1[N+](=O)[O-])C(C)C (stereo not drawn) , thanks.
// result > 100 µM

// query Also need "COc1cc(NC(C)=O)ccc1C(=O)NN1C(=O)/C(=C/c2ccco2)N=C1c1ccccc1" , thanks.
// result > 50 µM

// query Also need CC(=O)OCC1OC(N2C(=O)C(=O)c3ccccc32)C(OC(C)=O)C(OC(C)=O)C1OC(C)=O (stereo not drawn) , thanks.
// result > 100 µM

// query Also need "Cc1c2ccccc2cc2ccc3oc([N+](=O)[O-])cc3c12" , thanks.
// result > 100 µM

// query Also need "Cc1cc(N(CCC#N)CCC#N)ccc1/C=C(\NC(=O)/C=C/c1ccccc1)C(=O)NN" , thanks.
// result > 100 µM

// query Also need COC1CC(OC2CCC3(C)C(=CCC4C3C(OC(C)=O)C(OC(=O)CC(C)C)C3(C)C(C(C)=O)CCC43O)C2)OC(C)C1OC1CC(OC)C(OC2CC(OC)C(OC3OC(C)C(OC4OC(CO)C(O)C(O)C4O)C(OC)C3O)C(C)O2)C(C)O1 (stereo not drawn) , thanks.
// result > 75 µM

// query Also need "CCNC(=O)c1noc(-c2cc(C(C)C)c(O)cc2O)c1-c1ccc(CN2CCOCC2)cc1" , thanks.
// result 8.74 µM

// query Also need "O=c1oc2ccc(I)cc2c(=O)n1-c1ccc(Cl)cc1F" , thanks.
// result 3.43 µM

// query Also need CC1(C)[C@H]2CC[C@@]13C(=O)N1C(=O)O[C@@H]([C@H]1Cl)C(Cl)(COCc1ccccc1)C(=O)OCCO[C@H]3C2 (stereo partly drawn) , thanks.
// result > 100 µM

// query Also need "CC(=O)c1cnc2oc3ccc(O)cc3c2c1-c1ccccc1" , thanks.
// result > 100 µM

// query Also need "C/C(=N\NC(=O)CC#N)c1c(O)cc(C)oc1=O" , thanks.
// result > 100 µM

// query Also need "CCOC(=O)c1nc2cc(C(F)(F)F)ccc2nc1Nc1ccc(C(=O)NC(C(=O)OCC)C(=O)OCC)cc1" , thanks.
// result > 100 µM

// query Also need "Oc1ccccc1-c1nn(CNc2ccccc2Cl)c(=S)o1" , thanks.
// result > 100 µM

// query Also need COC(=O)C1(O)CC(=O)CCC1c1ccc(OC)cc1 (stereo not drawn) , thanks.
// result > 100 µM
